Source: patent US11628160B2

biological target: human V1a receptor (Homo sapiens); construct: host or cells: CHO cells; experiment: Human vasopressin V1a receptor binding assay; conditions: hV1a CHO cell line, competition with 1 nM 3H-AVP; read-out: V1a Binding Affinity IC50
pIC50: −log10 of the molar value.
Could you label it True if measured pIC50 is 9 or higher, and False otherwise?

Below are worked cases with known answers.
CC(C)(NC(=O)C(CCC(=O)N1CCN(C2CCCCC2)CC1)N1C(=O)C(N2C(=O)OCC2c2ccccc2)C1C=Cc1ccccc1)c1ccccc1 (stereo not drawn)	False
O=C(NCc1cccc(C(F)(F)F)c1F)C(CCC(=O)N1CCN(C2CCCCC2)CC1)N1C(=O)C(N2C(=O)OCC2c2ccccc2)C1C=Cc1ccccc1 (stereo not drawn)	True
COc1ccccc1CNC(=O)C(CCC(=O)N1CCN(C2CCCCC2)CC1)N1C(=O)C(N2C(=O)OCC2c2ccccc2)C1C=Cc1ccccc1 (stereo not drawn)	False

Please look at the following compound next.
Ask: Dear colleague, could you confirm whether O=C(NCc1cccnc1)C(CCC(=O)N1CCN(C2CCCCC2)CC1)N1C(=O)C(N2C(=O)OCC2c2ccccc2)C1C=Cc1ccccc1 (stereo not drawn) has pIC50 at or above 9?
Reply: False

====

biological target: human V1a receptor (Homo sapiens, UniProt P37288); construct: host or cells: CHO cells; test: Human vasopressin V1a receptor binding assay; conditions: hV1a CHO cell line, competition with 1 nM 3H-AVP; read-out: V1a Binding Affinity IC50
Sequence (P37288 whole entry): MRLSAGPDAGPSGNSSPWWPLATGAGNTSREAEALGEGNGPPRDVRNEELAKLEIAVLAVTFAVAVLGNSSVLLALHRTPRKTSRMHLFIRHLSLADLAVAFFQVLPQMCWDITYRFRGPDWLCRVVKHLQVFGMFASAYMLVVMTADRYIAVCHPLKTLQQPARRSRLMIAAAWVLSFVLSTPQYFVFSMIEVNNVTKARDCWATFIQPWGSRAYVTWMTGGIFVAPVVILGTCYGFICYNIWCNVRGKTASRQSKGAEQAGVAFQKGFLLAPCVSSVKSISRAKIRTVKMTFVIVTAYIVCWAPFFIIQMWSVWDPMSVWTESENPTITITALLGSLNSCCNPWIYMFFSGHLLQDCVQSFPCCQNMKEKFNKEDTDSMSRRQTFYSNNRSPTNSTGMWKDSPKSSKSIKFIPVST
ASSAY ENDPOINT: IC50 (nM)
Give the value, in units of nM, as a plain number.

N#Cc1cccc(C=CC2C(N3C(=O)OCC3c3ccccc3)C(=O)N2C(CCC(=O)N2CCN(C3CCCCC3)CC2)C(=O)NC2CCCc3ccccc32)c1 (stereo not drawn)	5.3
O=C(NC1CCCc2ccccc21)C(CCC(=O)N1CCN(C2CCCC2)CC1)N1C(=O)C(N2C(=O)OCC2c2ccccc2)C1C=Cc1ccccc1 (stereo not drawn)	2
CCN1CCN(C(=O)CCC(C(=O)NC2(c3ccccc3)CCCC2)N2C(=O)C(N3C(=O)OCC3c3ccccc3)C2C=Cc2ccccc2)CC1 (stereo not drawn)	6.6
O=C(C(COCc1ccccc1)N1C(=O)C(N2C(=O)OCC2c2ccccc2)C1C=Cc1ccccc1)N1CCC(CN2CCCCC2)CC1 (stereo not drawn) [Example 232E]	0.28
CC(NC(=O)C(CC(=O)N1CCC(N2CCCCC2)CC1)N1C(=O)C(N2C(=O)OCC2c2ccccc2)C1CCc1cccc(N)c1)c1ccccc1 (stereo not drawn)	14.4

GET /value?item= O=C(NCc1cccc([N+](=O)[O-])c1)C(CCC(=O)N1CCN(C2CCCCC2)CC1)N1C(=O)C(N2C(=O)OCC2c2ccccc2)C1C=Cc1ccccc1 (stereo not drawn) &field=IC50 returns 1.7

GET /value?item= O=C(NCCc1ccccc1)C(CCC(=O)N1CCN(C2CCCCC2)CC1)N1C(=O)C(N2C(=O)OCC2c2ccccc2)C1C=Cc1ccccc1 (stereo not drawn) &field=IC50 returns 5.08

GET /value?item= O=C(NC1(c2ccccc2)CC1)C(CCC(=O)N1CCN(C2CCCCC2)CC1)N1C(=O)C(N2C(=O)OCC2c2ccccc2)C1C=Cc1ccccc1 (stereo not drawn) &field=IC50 returns 4.48

GET /value?item= O=C(NCc1ccccc1)C(CCC(=O)N1CCN(C2CCCCC2)CC1)N1C(=O)C(N2C(=O)OCC2c2ccccc2)C1C=Cc1ccccc1 (stereo not drawn) &field=IC50 returns 2.92

GET /value?item= O=C(NCc1cccc(C(F)(F)F)c1)C(CC(=O)N1CCN(N2CCCC2)CC1)N1C(=O)C(N2C(=O)OCC2c2ccccc2)C1C=Cc1ccccc1 (stereo not drawn) [Example 134B] &field=IC50 returns 44.8

GET /value?item= O=C(NCc1ccco1)C(CCC(=O)N1CCN(C2CCCCC2)CC1)N1C(=O)C(N2C(=O)OCC2c2ccccc2)C1C=Cc1ccccc1 (stereo not drawn) &field=IC50 returns 5.37
